Listed here: items and their measured IC50.
Measured Target: Human recombinant Histone Deacetylase 8 (HDAC8) (Homo sapiens (Human))
Method: HDAC8 Enzymatic Assay (HDAC-Glo I/II luminescence)
Assay type: biochemical
Measurement Context: class symbols, Table 14; read-out: HDAC8 IC50
Procedure: HDAC-Glo™ I/II Assay Kit was purchased from Promega Corporation (Madison, Wis.), including the following components: HDAC-Glo I/II Buffer (25 mM Tris buffer, pH 8.0, supplemented with 137 mM: NaCl, 2.7 mM KCl, 1% v/v Triton X-100 and 1 mM: MgCl2), luminogenic substrates Boc-GAK(Ac)-aminoluciferin (HDAC-Glo I/II substrate), proprietary developer reagent (containing trypsin). Human recombinant Histone Deacetylase 8 (HDAC8) was purchased from Enzo Life Sciences (Plymouth Meeting, Pa.). […]

Record excerpt, results attached:
>  <Compound>
O=C(NO)C(Cc1ccccc1)c1cnc2c(-c3cccnc3)cccn12 (centres unmarked)

>  <IC50>
> 500 nM

$$$$
>  <Compound>
CN1CC=C(c2cccc3c2cnn3C(Cc2ccccc2)C(=O)NO)CC1 (centres unmarked)

>  <IC50>
200 to 500 nM

$$$$
>  <Compound>
O=C(NCC1CCOCC1)c1cccc2cn(C(Cc3ccccc3)C(=O)NO)nc12 (centres unmarked)

>  <IC50>
≤ 50 nM

$$$$
>  <Compound>
O=C(NO)C(Cc1ccccc1)n1ncc2cc(-c3ccncc3)ncc21 (centres unmarked)

>  <IC50>
> 500 nM

$$$$

Now for another entry.
IC50 reading for Cn1nccc1-c1cccc2c(C#CC3CC3)n(C(Cc3ccccc3)C(=O)NO)nc12 (centres unmarked) : ≤ 50 nM

---

Listed here: items and their measured IC50.
Measured Target: Human recombinant Histone Deacetylase 8 (HDAC8) (Homo sapiens (Human))
Method: HDAC8 Enzymatic Assay (HDAC-Glo I/II luminescence)
Assay type: biochemical
Measurement Context: class symbols, Table 14; read-out: HDAC8 IC50
Method: HDAC-Glo™ I/II Assay Kit was purchased from Promega Corporation (Madison, Wis.), including the following components: HDAC-Glo I/II Buffer (25 mM Tris buffer, pH 8.0, supplemented with 137 mM: NaCl, 2.7 mM KCl, 1% v/v Triton X-100 and 1 mM: MgCl2), luminogenic substrates Boc-GAK(Ac)-aminoluciferin (HDAC-Glo I/II substrate), proprietary developer reagent (containing trypsin). Human recombinant Histone Deacetylase 8 (HDAC8) was purchased from Enzo Life Sciences (Plymouth Meeting, Pa.). […]

Record excerpt, results attached:
>  <Molecule>
O=C(NO)C(Cc1ccccc1)n1ncc2nc(-c3ccncc3)ccc21 (stereo not drawn) [Compound I-0073]

>  <Measured Target>
Human recombinant Histone Deacetylase 8 (HDAC8) (Homo sapiens (Human))

>  <Reported>
200 to 500 nM

$$$$
>  <Molecule>
Cn1nccc1-c1cccc2nn(C(Cc3ccccc3)C(=O)NO)cc12 (stereo not drawn) [Compound I-0061]

>  <Measured Target>
Human recombinant Histone Deacetylase 8 (HDAC8) (Homo sapiens (Human))

>  <Reported>
200 to 500 nM

$$$$
>  <Molecule>
O=C(NO)C(Cc1ccccc1)n1ncc2cc(-c3cccnc3)cnc21 (stereo not drawn) [Compound I-0132]

>  <Measured Target>
Human recombinant Histone Deacetylase 8 (HDAC8) (Homo sapiens (Human))

>  <Reported>
200 to 500 nM

$$$$
>  <Molecule>
O=C(NO)C(Cc1ccccc1)n1nc2ccc(-c3cncnc3)cc2c1C#CC1CC1 (stereo not drawn) [Compound I-0030]

>  <Measured Target>
Human recombinant Histone Deacetylase 8 (HDAC8) (Homo sapiens (Human))

>  <Reported>
≤ 50 nM

$$$$
>  <Molecule>
O=C(NO)C(Cc1ccccc1)n1nc2c(-c3cccnc3)cccc2c1C#CC1CC1 (stereo not drawn) [Compound I-0155]

>  <Measured Target>
Human recombinant Histone Deacetylase 8 (HDAC8) (Homo sapiens (Human))

>  <Reported>
≤ 50 nM

$$$$

So the reported IC50 for O=C(NO)C(Cc1ccccc1)c1cnc2c(-c3cncnc3)cccn12 (stereo not drawn) [Compound I-0164] , on Human recombinant Histone Deacetylase 8 (HDAC8) (Homo sapiens (Human)), turned out to be > 500 nM

So the reported IC50 for CC(=O)N1CCN(c2cncc(-c3ccc4cnn(C(Cc5ccccc5)C(=O)NO)c4c3)c2)CC1 (stereo not drawn) [Compound I-0144] , on Human recombinant Histone Deacetylase 8 (HDAC8) (Homo sapiens (Human)), turned out to be 50 to 200 nM

So the reported IC50 for O=C(NO)C(Cc1ccccc1)n1ncc2c(-c3cncnc3)nccc21 (stereo not drawn) [Compound I-0071] , on Human recombinant Histone Deacetylase 8 (HDAC8) (Homo sapiens (Human)), turned out to be 50 to 200 nM

So the reported IC50 for O=C(NO)C(Cc1ccccc1)n1nc(C#CC2CC2)c2ccnc(Cl)c21 (stereo not drawn) [Compound I-0126] , on Human recombinant Histone Deacetylase 8 (HDAC8) (Homo sapiens (Human)), turned out to be 50 to 200 nM

So the reported IC50 for Cc1ccc2c(cnn2C(Cc2ccccc2)C(=O)NO)n1 (stereo not drawn) [Compound I-0075] , on Human recombinant Histone Deacetylase 8 (HDAC8) (Homo sapiens (Human)), turned out to be 200 to 500 nM

So the reported IC50 for O=C(NO)C(Cc1ccccc1)n1cc2cc(-c3cncnc3)ccc2n1 (stereo not drawn) [Compound I-0051] , on Human recombinant Histone Deacetylase 8 (HDAC8) (Homo sapiens (Human)), turned out to be 200 to 500 nM

So the reported IC50 for CN1CCN(c2ccc(-c3ccn4c(C(Cc5ccccc5)C(=O)NO)cnc4c3)cn2)CC1 (stereo not drawn) [Compound I-0152] , on Human recombinant Histone Deacetylase 8 (HDAC8) (Homo sapiens (Human)), turned out to be 200 to 500 nM

---

Measured Target: Human recombinant Histone Deacetylase 8 (HDAC8) (Homo sapiens (Human), UniProt Q9BY41)
Sequence (Q9BY41 whole entry): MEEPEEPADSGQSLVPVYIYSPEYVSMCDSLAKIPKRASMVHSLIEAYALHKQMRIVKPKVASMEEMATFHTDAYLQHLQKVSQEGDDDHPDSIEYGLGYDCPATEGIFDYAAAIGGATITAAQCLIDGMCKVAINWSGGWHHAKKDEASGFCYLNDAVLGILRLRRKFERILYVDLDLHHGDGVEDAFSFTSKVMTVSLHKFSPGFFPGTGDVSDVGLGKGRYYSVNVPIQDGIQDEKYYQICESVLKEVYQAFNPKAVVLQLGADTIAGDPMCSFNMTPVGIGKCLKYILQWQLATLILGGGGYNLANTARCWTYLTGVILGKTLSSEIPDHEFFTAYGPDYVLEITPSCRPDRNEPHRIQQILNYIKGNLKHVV
Method: HDAC8 Enzymatic Assay (HDAC-Glo I/II luminescence)
Type: biochemical
Measurement Context: class symbols, Table 14; read-out: HDAC8 IC50
pIC50: −log10 of the molar value.
Listed here: items and their measured pIC50.

Record excerpt, results attached:
>  <Compound>
NC(=O)c1ccc(-c2cccc3c(C#CC4CC4)n(C(Cc4ccccc4)C(=O)NO)nc23)cc1 (stereo not drawn) [Compound I-0138]

>  <Measured Target>
Human recombinant Histone Deacetylase 8 (HDAC8) (Homo sapiens (Human), UniProt Q9BY41)

>  <pIC50>
≥ 7.30

$$$$
>  <Compound>
O=C(NO)C(Cc1ccccc1)n1cc2cnccc2n1 (stereo not drawn) [Compound I-0043]

>  <Measured Target>
Human recombinant Histone Deacetylase 8 (HDAC8) (Homo sapiens (Human), UniProt Q9BY41)

>  <pIC50>
< 6.30

$$$$

pIC50 reading for O=C(NO)C(Cc1ccccc1)n1cc2ccc(C(F)(F)F)cc2n1 (stereo not drawn) [Compound I-0038] : < 6.30

pIC50 reading for O=C(NO)C(Cc1ccccc1)n1ncc2cc(-c3ccccc3)ccc21 (stereo not drawn) [Compound I-0013] : 6.30 to 6.70

pIC50 reading for Cc1nn(C)c(C)c1-c1ccc2c(cnn2C(Cc2ccccc2)C(=O)NO)c1 (stereo not drawn) [Compound I-0103] : 6.30 to 6.70

pIC50 reading for O=C(NO)C(Cc1ccccc1)n1ncc2cc(C3CC3)ncc21 (stereo not drawn) [Compound I-0098] : < 6.30

---

Measured Target: Human recombinant Histone Deacetylase 8 (HDAC8) (Homo sapiens (Human), UniProt Q9BY41)
Method: HDAC8 Enzymatic Assay (HDAC-Glo I/II luminescence)
Type: biochemical
Measurement Context: class symbols, Table 14; read-out: HDAC8 IC50
Listed here: items and their measured IC50.

Record excerpt, results attached:
>  <Molecule>
NC(=O)c1ccc(-c2cnc3c(cnn3C(Cc3ccccc3)C(=O)NO)c2)cc1 (centres unmarked) [Compound I-0118]

>  <Measured Target>
Human recombinant Histone Deacetylase 8 (HDAC8) (Homo sapiens (Human), UniProt Q9BY41)

>  <IC50>
200 to 500 nM

$$$$
>  <Molecule>
O=C(NO)C(Cc1ccccc1)n1ncc2ccc(-c3cnn(CCN4CCOCC4)c3)cc21 (centres unmarked) [Compound I-0143]

>  <Measured Target>
Human recombinant Histone Deacetylase 8 (HDAC8) (Homo sapiens (Human), UniProt Q9BY41)

>  <IC50>
> 500 nM

$$$$
>  <Molecule>
O=C(NO)C(Cc1ccccc1)n1nc2ccc(-c3cccnc3)cc2c1C#CC1CC1 (centres unmarked) [Compound I-0045]

>  <Measured Target>
Human recombinant Histone Deacetylase 8 (HDAC8) (Homo sapiens (Human), UniProt Q9BY41)

>  <IC50>
50 to 200 nM

$$$$
>  <Molecule>
O=C(NO)C(Cc1ccccc1)n1ncc2c(-c3ccccc3)cccc21 (centres unmarked) [Compound I-0079]

>  <Measured Target>
Human recombinant Histone Deacetylase 8 (HDAC8) (Homo sapiens (Human), UniProt Q9BY41)

>  <IC50>
> 500 nM

$$$$
>  <Molecule>
NC(=O)c1cccc(-c2cccc3c(C#CC4CC4)n(C(Cc4ccccc4)C(=O)NO)nc23)c1 (centres unmarked) [Compound I-0157]

>  <Measured Target>
Human recombinant Histone Deacetylase 8 (HDAC8) (Homo sapiens (Human), UniProt Q9BY41)

>  <IC50>
≤ 50 nM

$$$$

Now for another entry.
IC50 reading for Cc1cc2cn(C(Cc3ccccc3)C(=O)NO)nc2cc1Br (centres unmarked) [Compound I-0039] : > 500 nM
